Biological target: XIAP BIR3 (Homo sapiens, UniProt P98170)
Construct: covering amino acids 241 to 356; XIAP BIR3
Sequence (P98170 241-356): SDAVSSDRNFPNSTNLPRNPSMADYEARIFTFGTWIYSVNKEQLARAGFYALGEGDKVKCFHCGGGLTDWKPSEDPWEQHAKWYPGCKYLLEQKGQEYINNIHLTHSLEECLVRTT
Assay: XIAP BIR3 binding assay (DELFIA), displacement of SMAC peptide
Details: GST-fusion BIR3 domain (aa 241 to 356) 10 nM, SMAC peptide 10 nM; activity of the (S)-isomers
REPORTED ENDPOINT: pIC50
The value called pIC50 is obtained by taking minus log10 of the concentration in mol/L.

Request: Find the recorded pIC50 belonging to CNC(C)C(=O)Nc1ccc(-c2cnc3ccc(C#N)cn23)c(C#Cc2ccc3cnccc3c2)n1 (stereo not shown) and report it.
Result: 6.35

Request: Find the recorded pIC50 belonging to CNC(C)C(=O)Nc1ccc(-c2cncc(Cl)c2)c(C#Cc2ccccc2)n1 (stereo not shown) and report it.
Result: 6.83

Request: Find the recorded pIC50 belonging to CNC(C)C(=O)Nc1ccc(-c2cc(F)cc(C(=O)OC)c2)c(C#Cc2ccccc2)n1 (stereo not shown) and report it.
Result: 6.49

Request: Find the recorded pIC50 belonging to CNC(C)C(=O)Nc1ccc(-c2c(-c3ccncc3)nc3cc(C)ccn23)c(C#Cc2ccc(OC)c3ncccc23)n1 (stereo not shown) and report it.
Result: 7.08

Request: Find the recorded pIC50 belonging to CNC(C)C(=O)Nc1ccc(-c2c(C)nc3ccccn23)c(C#Cc2ccc3c(Cl)nccc3c2)n1 (stereo not shown) and report it.
Result: 6.51

Request: Find the recorded pIC50 belonging to CNC(C)C(=O)Nc1ccc(-c2cnc(-n3ccnc3)nc2)c(C#Cc2ccccc2)n1 (stereo not shown) and report it.
Result: 7.12

Request: Find the recorded pIC50 belonging to CC(N)C(=O)Nc1cccc(C#Cc2ccsc2)n1 (stereo not shown) and report it.
Result: 5.67

Request: Find the recorded pIC50 belonging to CNC(C)C(=O)Nc1ccc(-c2cncc(C#N)c2)c(C#Cc2ccccc2)n1 (stereo not shown) and report it.
Result: 6.92

Request: Find the recorded pIC50 belonging to CNC(C)C(=O)Nc1ccc(-c2c(C)nc3ccccn23)c(C#Cc2ccc(-c3ccon3)cc2)n1 (stereo not shown) and report it.
Result: 6.55

Request: Find the recorded pIC50 belonging to CNC(C)C(=O)Nc1ccc(-c2cncnc2)c(C#Cc2ccc3ccccc3n2)n1 (stereo not shown) and report it.
Result: 6.00

Request: Find the recorded pIC50 belonging to CC(N)C(=O)Nc1cccc(C#Cc2cccc(C(=O)N3CCOCC3)c2)n1 (stereo not shown) and report it.
Result: 5.00

Request: Find the recorded pIC50 belonging to CNc1ncc(-c2ccc(NC(=O)C(C)NC)nc2C#Cc2ccc3ccccc3c2)cn1 (stereo not shown) and report it.
Result: 6.56

Request: Find the recorded pIC50 belonging to CNC(C)C(=O)Nc1ccc(-c2c(OC)ccc3ccccc23)c(C#Cc2ccccc2)n1 (stereo not shown) and report it.
Result: 5.35

Request: Find the recorded pIC50 belonging to CNC(C)C(=O)Nc1ccc(-c2cscc2C#N)c(C#Cc2ccccc2)n1 (stereo not shown) and report it.
Result: 6.50

Request: Find the recorded pIC50 belonging to CNC(C)C(=O)Nc1ccc(-c2cncc(-c3ccccc3)c2)c(C#Cc2ccccc2)n1 (stereo not shown) and report it.
Result: 6.71

Request: Find the recorded pIC50 belonging to Cc1cc(C)cc(C#Cc2nc(NC(=O)C(C)N)cc3ccccc23)c1 (stereo not shown) and report it.
Result: 5.72

Request: Find the recorded pIC50 belonging to CNC(C)C(=O)Nc1ccc(-c2c(C)nc(N(C)C)nc2C)c(C#Cc2ccc3ncccc3c2)n1 (stereo not shown) and report it.
Result: 5.97

Request: Find the recorded pIC50 belonging to CNC(C)C(=O)Nc1ccc(-c2cnc(SC)nc2C#N)c(C#Cc2ccc3cnccc3c2)n1 (stereo not shown) and report it.
Result: 6.04

Request: Find the recorded pIC50 belonging to CNC(C)C(=O)Nc1ccc(-c2ccc(C)nc2)c(C#Cc2ccccc2)n1 (stereo not shown) and report it.
Result: 6.90

Request: Find the recorded pIC50 belonging to CC(N)C(=O)Nc1cccc(C#Cc2cncs2)n1 (stereo not shown) and report it.
Result: 5.34

Request: Find the recorded pIC50 belonging to CC(N)C(=O)Nc1ccc(-c2cccnc2)c(C#Cc2ccccc2)n1 (stereo not shown) and report it.
Result: 6.89

Request: Find the recorded pIC50 belonging to CNC(C)C(=O)Nc1ccc(-c2sc(C)nc2C)c(C#Cc2ccccc2)n1 (stereo not shown) and report it.
Result: 6.82

Request: Find the recorded pIC50 belonging to CNC(C)C(=O)Nc1ccc(-c2cncc(C(=O)OC)c2)c(C#Cc2cccc(C)c2)n1 (stereo not shown) and report it.
Result: 7.02

Request: Find the recorded pIC50 belonging to CNC(=O)c1ccc(C#Cc2nc(NC(=O)C(C)NC)ccc2-c2c(C)nc3ccccn23)cn1 (stereo not shown) and report it.
Result: 6.21

Request: Find the recorded pIC50 belonging to CNC(C)C(=O)Nc1ccc(-c2cnccc2C#N)c(C#Cc2cc(F)cc(F)c2)n1 (stereo not shown) and report it.
Result: 6.32

Request: Find the recorded pIC50 belonging to CNC(C)C(=O)Nc1ccc(-c2cncnc2)c(C#Cc2ccc(OC)c(C#N)c2)n1 (stereo not shown) and report it.
Result: 5.84

Request: Find the recorded pIC50 belonging to CC(N)C(=O)Nc1cc(Cl)cc(C#Cc2ccccc2)n1 (stereo not shown) and report it.
Result: 5.50

Request: Find the recorded pIC50 belonging to CNC(C)C(=O)Nc1ccc(-c2cscc2-c2ccncc2)c(C#Cc2ccccc2)n1 (stereo not shown) and report it.
Result: 6.59

Request: Find the recorded pIC50 belonging to CNC(C)C(=O)Nc1ccc(-c2ccnc3ccccc23)c(C#Cc2cc(F)cc(F)c2)n1 (stereo not shown) and report it.
Result: 6.37

Request: Find the recorded pIC50 belonging to CNC(C)C(=O)Nc1ccc(-c2c(C)nc3ccccn23)c(C#Cc2cnc3ccccn23)n1 (stereo not shown) and report it.
Result: 6.74

Request: Find the recorded pIC50 belonging to CCOc1ccc(-c2ccc(NC(=O)C(C)NC)nc2C#Cc2ccccc2)cn1 (stereo not shown) and report it.
Result: 6.24

Request: Find the recorded pIC50 belonging to CNC(C)C(=O)Nc1ccc(-c2c(-c3ccncc3)nc3cc(C)ccn23)c(C#Cc2ccc(F)c3ncccc23)n1 (stereo not shown) and report it.
Result: 7.33

Request: Find the recorded pIC50 belonging to COC(=O)c1cccc(C#Cc2cccc(NC(=O)C(C)N)n2)c1 (stereo not shown) and report it.
Result: 5.61

Request: Find the recorded pIC50 belonging to CC(N)C(=O)Nc1ccc(-c2cncc(Oc3ccccc3)c2)c(C#Cc2ccccc2)n1 (stereo not shown) and report it.
Result: 6.34
